system: Johnson grass; assay: Test D Johnson grass; assay type: in vivo, Sorghum halepense; details: Rate 125 g/ha, Preemergence; 0 to 100 scale, 0 no injury, 100 complete control
Quick list: Plant response rating, Johnsongrass per entry.
parameter_measured: Plant response rating, Johnsongrass

# compound, readout_value
records = [
    ("Cc1cccc(C)c1-n1c(=O)on(C(=O)N(c2ccccc2)C(C)C)c1=O [Compound 46]", 40),
    ("CC(C)N(C(=O)n1oc(=O)n(Cc2cccs2)c1=O)c1ccccc1 [Compound 103]", 0),
    ("CCn1c(=O)on(C(=O)N(c2ccc(Cl)cc2)C(C)C)c1=O [Compound 108]", 40),
    ("Cc1ccccc1-n1c(=O)on(C(=O)N(c2ccc(F)cc2)C(C)C)c1=O [Compound 4]", 0),
]

* * *

The molecules listed here are annotated with their Plant response rating, I. Ryegrass.
tested on: Italian ryegrass; experiment: Test E Italian ryegrass; format: in vivo, Lolium multiflorum; conditions: Preemergence, Rate 125 g/ha; 0 to 100 scale (0 no effect, 100 complete control)
parameter_measured: Plant response rating, I. Ryegrass

# molecule, readout_value
records = [
    ("CC(C)N(C(=O)n1oc(=O)n(C(C)CCl)c1=O)c1ccc(F)cc1 (centres unmarked) [Compound 367]", 60),
    ("Cc1nc(C)c(Cn2c(=O)on(C(=O)N(c3ccc(Cl)cc3)C(C)C)c2=O)s1 [Compound 191]", 0),
    ("CCn1c(=O)on(C(=O)N(c2ccc(Cl)cc2)C(C)C)c1=O [Compound 108]", 45),
    ("CCCn1c(=O)on(C(=O)N(c2ccc(Cl)cc2)C(C)C)c1=O [Compound 119]", 35),
    ("CC(C)N(C(=O)n1oc(=O)n(C2CCCCC2)c1=O)c1ccc(F)cc1 [Compound 110]", 0),
]

* * *

tested on: surinam grass; assay: Test B pre/postemergence surinam grass; assay type: in vivo, Brachiaria decumbens; conditions: Postemergence, Rate 125 g/ha; scale of 0 to 10 where 0 is no effect and 10 is complete control
Listing: B. signalgrass plant response rating of selected molecules
parameter_measured: B. signalgrass plant response rating

# molecule, readout_value
rows = [
    ("COP(=O)(CCn1c(=O)on(C(=O)N(c2ccc(F)cc2F)C(C)C)c1=O)OC [Compound 777]", 2),
    ("CC(C)Cn1c(=O)on(C(=O)N(c2ccc(F)cc2)C(C)C)c1=O [Compound 169]", 0),
    ("Cc1nc(C(C)n2c(=O)on(C(=O)N(c3ccccc3)C(C)C)c2=O)sc1C (stereo not shown) [Compound 756]", 0),
    ("CC(C)N(C(=O)n1oc(=O)n(CC(F)(F)F)c1=O)c1ccc(F)cc1 [Compound 163]", 2),
]

* * *

Recorded measurements of Giant foxtail plant response rating (0 to 10 scale), one per entry
tested on: giant foxtail; assay: Test B pre/postemergence giant foxtail; assay type: in vivo, Setaria faberii; settings: Preemergence, Rate 250 g/ha
parameter_measured: Giant foxtail plant response rating (0 to 10 scale)

# compound, study_target, readout_value
rows = [
    ("CC(=O)C(C)n1c(=O)on(C(=O)N(c2ccccc2)C(C)C)c1=O (centres unmarked)", "giant foxtail", 9),
    ("CCC(=O)Cn1c(=O)on(C(=O)N(c2ccc(Cl)cc2)C(C)C)c1=O", "giant foxtail", 10),
    ("COCn1c(=O)on(C(=O)N(c2ccc(Cl)cc2)C(C)C)c1=O", "giant foxtail", 10),
    ("COC(=O)CCCn1c(=O)on(C(=O)N(c2ccccc2)C(C)C)c1=O", "giant foxtail", 4),
    ("CC(C)N(C(=O)n1oc(=O)n(CCC2OCCO2)c1=O)c1ccc(Cl)cc1", "giant foxtail", 10),
]

* * *

tested on: green foxtail; experiment: Test E green foxtail; format: in vivo, Setaria viridis; conditions: Preemergence, Rate 250 g/ha
parameter_measured: Green foxtail plant response rating (0 to 100 scale)

# compound, readout_value
data = [
    ("CC(C)N(C(=O)n1oc(=O)n(C2CCCC2)c1=O)c1ccc(F)cc1F", 100),
    ("CC(C)N(C(=O)n1oc(=O)n(C2CC2)c1=O)c1ccc(Cl)cc1", 90),
    ("CC1CCCCC1n1c(=O)on(C(=O)N(c2ccc(F)cc2F)C(C)C)c1=O (stereo not shown)", 60),
    ("Cc1nc(C)c(Cn2c(=O)on(C(=O)N(c3ccc(Cl)cc3)C(C)C)c2=O)s1", 40),
]

* * *

test system: morningglory; assay: Test B pre/postemergence morningglory; format: in vivo, Ipomoea hederacea; details: Rate 500 g/ha, Postemergence; scale 0 to 10
Below, each of the molecules is paired with its reported Morningglory plant response rating value.

# molecule, Morningglory plant response rating
rows = [
    ("CC(C)N(C(=O)n1oc(=O)n(CCC(F)=C(F)F)c1=O)c1ccc(F)cc1", 9),
    ("Cc1nc(C)c(Cn2c(=O)on(C(=O)N(c3ccc(Cl)cc3)C(C)C)c2=O)s1", 8),
    ("CCC(CC)N(C(=O)n1oc(=O)n(-c2ccccc2C)c1=O)c1ccc(F)cc1", 2),
    ("CC1CCCCC1n1c(=O)on(C(=O)N(c2ccc(F)cc2F)C(C)C)c1=O (centres unmarked)", 8),
    ("COc1nc(OC)nc(N(C(=O)n2oc(=O)n(C(C)C)c2=O)C(C)C)n1", 0),
]

* * *

Consider the following compounds and their measured Cocklebur plant response rating readings.
system: cocklebur; experiment: Test B pre/postemergence cocklebur; assay type: in vivo, Xanthium strumarium; details: Rate 125 g/ha; Postemergence; scale 0 to 10, 0 no effect, 10 complete control

# compound, Cocklebur plant response rating
rows = [
    ("Cc1cccc(C)c1-n1c(=O)on(C(=O)N(c2ccccc2)C(C)C)c1=O [Compound 46]", 1),
    ("CC(C)N(C(=O)n1oc(=O)n(-c2ccc(OC(F)(F)F)cc2)c1=O)C1=CCOCC1 [Compound 13]", 0),
    ("Cc1nn(C)c(C)c1-n1c(=O)on(C(=O)N(c2ccc(F)cc2)C(C)C)c1=O [Compound 75]", 0),
    ("Cc1ccccc1-n1c(=O)on(C(=O)N(c2ccc(C#N)cc2)C(C)C)c1=O [Compound 51]", 0),
    ("COc1ccc(-n2c(=O)on(C(=O)N(c3ccc(F)cc3)C(C)C)c2=O)c(C)c1 [Compound 35]", 2),
]

* * *

System: velvetleaf
Experiment: Test B pre/postemergence velvetleaf
Assay type: in vivo, Abutilon theophrasti
Details: Preemergence, Rate 500 g/ha; scale 0 to 10, 0 is no effect, 10 is complete control
Method: […] At the same time, these crop and weed species were also treated with postemergence applications of test chemicals formulated in the same manner. […] Treated plants and controls were maintained in a greenhouse for twelve to sixteen days, after which all species were compared to controls and visually evaluated. […]
In this section we review reported Velvetleaf plant response rating values for a set of compounds.
parameter_measured: Velvetleaf plant response rating

# compound, readout_value
data = [
    ("CC(C)N(C(=O)n1oc(=O)n(CCC[Si](C)(C)C)c1=O)c1ccc(F)cc1 [Compound 461]", 0),
    ("CC(C)N(C(=O)n1oc(=O)n(C(C)C(=O)N(C)C)c1=O)c1ccc(Cl)cc1 (centres unmarked) [Compound 480]", 0),
    ("CC(C)N(C(=O)n1oc(=O)n(CCCl)c1=O)c1ccc(Cl)cc1 [Compound 474]", 0),
    ("CC(C)Cn1c(=O)on(C(=O)N(c2ccc(Cl)cc2)C(C)C)c1=O [Compound 417]", 6),
    ("CC(C)N(C(=O)n1oc(=O)n(C(C)C2CC2)c1=O)c1ccc(F)cc1 (centres unmarked) [Compound 404]", 7),
]

* * *

Reported Plant response rating, Velvetleaf values for a set of molecules
test system: velvetleaf; assay: Test B pre/postemergence velvetleaf; type: in vivo, Abutilon theophrasti; settings: Preemergence, Rate 250 g/ha; scale of 0 to 10 where 0 is no effect and 10 is complete control

# smiles_input, study_target, Plant response rating, Velvetleaf
records = [
    ("Cc1ccccc1-n1c(=O)on(C(=O)N(c2ccc(C#N)cc2)C(C)C)c1=O", "velvetleaf", 0),
    ("COc1ccc(-n2c(=O)on(C(=O)N(C3=CCOCC3)C(C)C)c2=O)cc1", "velvetleaf", 2),
    ("CCN(CC)C(=O)n1oc(=O)n(-c2cccc3c2CCCC3)c1=O", "velvetleaf", 0),
    ("Cc1ccccc1-n1c(=O)on(C(=O)N(c2ccc(Cl)cc2)C(C)C)c1=O", "velvetleaf", 0),
    ("CC(C)N(C(=O)n1oc(=O)n(-c2ccc(OC(F)(F)F)cc2)c1=O)C1=CCOCC1", "velvetleaf", 0),
    ("Cc1ccccc1-n1c(=O)on(C(=O)N(c2ccc(F)cc2)C(C)C)c1=O", "velvetleaf", 0),
    ("CCc1ccccc1-n1c(=O)on(C(=O)N(c2ccc(F)cc2F)C(C)C)c1=O", "velvetleaf", 0),
    ("CC(C)N(C(=O)n1oc(=O)n(Cc2cccs2)c1=O)c1ccccc1", "velvetleaf", 3),
    ("CC(C)N(C(=O)n1oc(=O)n(Cc2cccs2)c1=O)c1ccc(F)cc1", "velvetleaf", 2),
    ("CCn1c(=O)on(C(=O)N(c2ccc(Cl)cc2)C(C)C)c1=O", "velvetleaf", 4),
]
